Field: HORVW damage to plant (100=total damage to plant; 0=no damage to plant). Provide a value for each of the compounds that follow.
Test system: HORVW (Hordeum vulgare—barley)
Experiment: Post-emergence glasshouse herbicide test, crop damage on barley
Type: in vivo
Details: Rate 125 g/ha; sprayed after 10 days cultivation; evaluated after 14 days

Query (compound): COc1ccc(-n2nc(C)cc(C(=O)C3C(=O)CC(C)(C)CC3=O)c2=O)cc1OC [Compound 1.4] ; field requested: HORVW damage to plant (100=total damage to plant; 0=no damage to plant) 0

Query (compound): COc1ccc(-n2nc(C)cc(C(=O)C3C(=O)CCCC3=O)c2=O)cc1OC [Compound 1.3] ; field requested: HORVW damage to plant (100=total damage to plant; 0=no damage to plant) 0

Query (compound): COc1ccc(-n2nc(C)cc(C(=O)C3C(=O)C4CCC(C4)C3=O)c2=O)cc1OC (stereo not drawn) [Compound 1.1] ; field requested: HORVW damage to plant (100=total damage to plant; 0=no damage to plant) 0
